Please respond with reported MIC for every item in the list.
System: Staphylococcus aureus
runDescription: Antibacterial activity against Staphylococcus aureus ATCC 29213 incubated for 16 to 20 hrs by broth microdilution method
Type: functional
particulars: time 16-20 hrs
Form entry: value (µg/mL) — number only.

For Staphylococcus aureus, provide MIC of CCCCCCNC(=O)C[n+]1ccc(SCCCCOc2ccc3ccc(=O)oc3c2CC=C(C)C)cc1.[Br-] please.
1

Give the reported MIC for CCCCNC(=O)C[n+]1ccc(SCCCCOc2ccc3ccc(=O)oc3c2CC=C(C)C)cc1.[Br-] (system: Staphylococcus aureus).
8

I'm curious: which MIC was measured for CCCNC(=O)C[n+]1ccc(SCCCCCOc2ccc3ccc(=O)oc3c2CC=C(C)C)cc1.[Br-] tested on Staphylococcus aureus?
2

Value wanted: MIC (Staphylococcus aureus) of entry CCCCCCNC(=O)C[n+]1ccc(SCCCOc2ccc3ccc(=O)oc3c2CC=C(C)C)cc1.[Br-]
1

* * *

Tested on: Staphylococcus aureus
runDescription: Antibacterial activity against methicillin-resistant Staphylococcus aureus M17 incubated for 16 to 20 hrs by broth microdilution method
Assay type: functional
particulars: time 16-20 hrs
parameterMeasured: MIC (µg/mL)
The response must be a number in µg/mL with no trailing unit.

What does the data say about its MIC? Entry: CCCCCNC(=O)C[n+]1ccc(SCCCCOc2ccc3ccc(=O)oc3c2CC=C(C)C)cc1.[Br-]
2

Which MIC is reported for this compound? CCCN(CCC)C(=O)C[n+]1ccc(SCCCCOc2ccc3ccc(=O)oc3c2CC=C(C)C)cc1.[Br-]
2

// returns reported MIC for input CC(C)=CCc1c(OCCCSc2cc[n+](CC(=O)N3CCOCC3)cc2)ccc2ccc(=O)oc12.[Br-]
64

Would you mind telling me what MIC value was observed for CC(C)=CCc1c(OCCCCCSc2cc[n+](CC(=O)N(C)c3ccccc3)cc2)ccc2ccc(=O)oc12.[Br-] ?
8

* * *

System: Staphylococcus aureus
runDescription: Antibacterial activity against methicillin-resistant Staphylococcus aureus M17 incubated for 16 to 20 hrs by broth microdilution method
Assay type: functional
particulars: time 16-20 hrs
Answer each item with its documented MIC.
The reply should contain only the number, in µg/mL.

Form field - read-out: MIC; system: Staphylococcus aureus; submitted item: CCCNC(=O)C[n+]1ccc(SCCCCCOc2ccc3ccc(=O)oc3c2CC=C(C)C)cc1.[Br-]
8

Could you share what MIC was measured for CCCN(CCC)C(=O)C[n+]1ccc(SCCCCCOc2ccc3ccc(=O)oc3c2CC=C(C)C)cc1.[Br-] , tested on Staphylococcus aureus?
2

Hi! What's the reported MIC for CC(C)=CCc1c(OCCCCSc2cc[n+](CC(=O)N(C(C)C)C(C)C)cc2)ccc2ccc(=O)oc12.[Br-] on Staphylococcus aureus?
2

Any idea what MIC came out for CCCCNC(=O)C[n+]1ccc(SCCCCCOc2ccc3ccc(=O)oc3c2CC=C(C)C)cc1.[Br-] on Staphylococcus aureus?
2

* * *

Test system: Staphylococcus aureus
runDescription: Antibacterial activity against Staphylococcus aureus ATCC 29213 incubated for 16 to 20 hrs by broth microdilution method
Type: functional
particulars: time 16-20 hrs
Labelling: MIC reported below 2 µg/mL becomes t; at or above becomes f.

Determine whether this compound shows MIC lower than 2 µg/mL (ties excluded): CC(C)=CCc1c(OCCCSc2cc[n+](CC(=O)N3CCOCC3)cc2)ccc2ccc(=O)oc12.[Br-]
f

Please check: MIC for CCCNC(=O)C[n+]1ccc(SCCCCOc2ccc3ccc(=O)oc3c2CC=C(C)C)cc1.[Br-] , strictly under 2 µg/mL or not?
f

Bench note: check whether CCCCCCNC(=O)C[n+]1ccc(SCCCCCOc2ccc3ccc(=O)oc3c2CC=C(C)C)cc1.[Br-] shows MIC below 2 µg/mL
f

Strictly below 2 µg/mL: is that where MIC of CCCCN(CCCC)C(=O)C[n+]1ccc(SCCCCOc2ccc3ccc(=O)oc3c2CC=C(C)C)cc1.[Br-] sits?
t

In the record for CCCCN(CCCC)C(=O)C[n+]1ccc(SCCCOc2ccc3ccc(=O)oc3c2CC=C(C)C)cc1.[Br-] , is MIC less than 2 µg/mL?
t

For CCCN(CCC)C(=O)C[n+]1ccc(SCCCCCOc2ccc3ccc(=O)oc3c2CC=C(C)C)cc1.[Br-] , is the recorded MIC below the cut-off of 2 µg/mL?
t

Please determine if CC(C)=CCc1c(OCCCCSc2cc[n+](CC(=O)N(CC(C)C)CC(C)C)cc2)ccc2ccc(=O)oc12.[Br-] is below 2 µg/mL in terms of MIC.
t

Hey, just so you know, these numbers are from ChEMBL document CHEMBL6109153.
